Hey, just so you know, these numbers are from patent US6028092A.

# Measurement notes: In-situ solubilisation: solubility of Compound 1 in 50% acetate solution (0.1M) / 50% ethanol
# Assay type: physicochemical
# Details: 0.1m calcium acetate/ethanol 50:50, organic solvent or mixture; calcium acetate 0.1M 50% / ethanol 50%
Readout label: solubility
Note: a bare number is incomplete; add the unit.

Fill in the blank: the reported solubility of O=C(Nc1cccc2c(=O)cc(-c3nnn[nH]3)oc12)c1ccc(OCCCCc2ccccc2)cc1 [Compound 1] is ____.
400 µg/mL

* * *

# Measurement notes: In-situ solubilisation: solubility of Compound 1 in 50% acetate solution (0.1M) / 50% ethanol
# Format: physicochemical
# Details: 0.1m potassium acetate/ethanol 50:50, organic solvent or mixture; potassium acetate 0.1M 50% / ethanol 50%
Readout label: solubility

Please report the recorded solubility for O=C(Nc1cccc2c(=O)cc(-c3nnn[nH]3)oc12)c1ccc(OCCCCc2ccccc2)cc1 [Compound 1] .
12.2 mg/mL

* * *

# Measurement notes: Solubility of Compound 1 in 50% solvent systems/50% sodium phosphate (pH7) at different molarities
# Format: physicochemical
# Details: 50% glycerol/0.1m sodium phosphate, pH 7, organic solvent or mixture; 50% glycerol / 50% sodium phosphate pH7, 0.1M
Readout label: solubility (µg/mL)
A number alone suffices; assume µg/mL.

Look up solubility for this molecule: O=C(Nc1cccc2c(=O)cc(-c3nnn[nH]3)oc12)c1ccc(OCCCCc2ccccc2)cc1 [Compound 1]
200

* * *

# Measurement notes: Solubility of Compound 1 salts in water, ethanol and PEG 400
# Assay type: physicochemical
# Details: ethanol
Quick reference: Solubility in ethanol of the listed items.
Record the value in µg/mL, omitting the unit from your answer.

Example entries and their recorded answers appear below.
| Molecule | Readout label | Reported |
| --- | --- | --- |
| O=C(Nc1cccc2c(=O)cc(-c3nnn[nH]3)oc12)c1ccc(OCCCCc2ccccc2)cc1 [Meglumine] | Solubility in ethanol | 3060 |
| O=C(Nc1cccc2c(=O)cc(-c3nnn[nH]3)oc12)c1ccc(OCCCCc2ccccc2)cc1 [Ammonium] | Solubility in ethanol | 9330 |

Kindly review the next molecule as well.
Please give the measured Solubility in ethanol for this molecule: O=C(Nc1cccc2c(=O)cc(-c3nnn[nH]3)oc12)c1ccc(OCCCCc2ccccc2)cc1 [Calcium]
360

* * *

# Measurement notes: Solubility of Compound 1 in 50% solvent systems/50% sodium phosphate (pH7) at different molarities
# Format: physicochemical
# Details: 50% propylene glycol/0.1m sodium phosphate, pH 7, organic solvent or mixture; 50% propylene glycol / 50% sodium phosphate pH7, 0.1M
Readout label: solubility (µg/mL)
Form entry: value (µg/mL) — number only.

Please report the recorded solubility for "O=C(Nc1cccc2c(=O)cc(-c3nnn[nH]3)oc12)c1ccc(OCCCCc2ccccc2)cc1" .
1700
